- System: BT-549 breast
- testMethodNotes: NCI-60 one-dose screen, 48 h
- testSettings: 10 µM unless noted
Compounds without any hit were thinned out: in the full panel of roughly 83,000, 20% have a hit. Calls of active or inactive are those of the source. How the source made its calls: active means growth percent below 10; inactive means the rest.
Assign a class; possible classes are active, inactive

Examples from the recorded data:
{"columns": ["compound", "label"],
 "data": [
  ["COc1ccc(-c2nc3ccc(-c4nnc(SCc5ccccc5)o4)cc3[nH]2)cc1", "active"],
  ["O=C1CCC(N2C(=O)c3cccc(NCCCCCC(=O)N4CCN(c5ccc6nc7c(nc6c5C(F)(F)F)C(=O)c5ncccc5C7=O)CC4)c3C2=O)C(=O)N1 (stereo not drawn)", "active"],
  ["COc1cc(/C=C/C(=O)c2cnn(-c3cc(=O)[nH]c4ccc(Br)cc34)c2C)cc(OC)c1OC", "active"],
  ["O=C(N/N=C/c1ccsc1)c1[nH]c2ccc(Br)cc2c1-c1ccccc1", "active"]
]}

Ask: I'd appreciate the recorded outcome for CC1=C(C(=O)Nc2ccccc2)C(c2cccc3ccccc23)n2c(nc3ccccc32)N1 (stereo not drawn) from this test.
Reply: active

Ask: I'd appreciate the recorded outcome for O=C(c1ccc(O)cc1)C1[C@H](c2ccccc2Br)[C@@H](c2ccccc2)NC12C(=O)Nc1ccccc12 (stereo partly drawn) from this test.
Reply: inactive

Ask: I'd appreciate the recorded outcome for `Nc1nn2c(-c3cc4ccccc4oc3=O)ccnc2c1N=Nc1ccccc1` from this test.
Reply: inactive

Ask: I'd appreciate the recorded outcome for `Cn1cc(-c2cc(N)n3nc(-c4c[nH]c5ccc(F)cc45)cc3n2)c2cc(Br)cnc21` from this test.
Reply: inactive

====

This listing pairs compounds with measured growth.
- Test system: DU-145 prostate
- testMethodNotes: NCI-60 one-dose screen, 48 h (100 = growth as untreated, 0 = no growth, -100 = all killed)
- testSettings: 10 µM unless noted
About 83,000 compounds went through this panel and 20% of them were active in at least one assay; those are over-represented in the sample as a whole. The source made the active and inactive calls. Rule for the calls: active = growth percent below 10; inactive = the rest.

{"columns": ["compound", "systemUnderTest", "growth"],
 "data": [
  ["O=C(Nc1ccc(-c2ccc3c(c2)NC(=O)/C3=C\\c2ccc[nH]2)cc1)Nc1ccc(Cl)c(Cl)c1", "DU-145 prostate", "54.3% (inactive)"],
  ["CC1=NN(C2=NC(=O)C(CC(=O)Nc3ccccc3C(F)(F)F)S2)C(c2ccc(N(C)C)cc2)C1 (configuration not stated)", "DU-145 prostate", "63.6% (inactive)"],
  ["CC1=C(C(=O)OCc2ccccc2)C(c2ccc(N(C)C)cc2)n2c(nc3ccccc32)N1 (configuration not stated)", "DU-145 prostate", "99.6% (inactive)"]
]}

Ask: # query: growth | item `Cc1nn(-c2ccccc2)c2nc(C)n(CC(=O)N/N=C/c3ccccc3O)c(=O)c12` | system: DU-145 prostate
Reply: 48.9% (inactive)

Ask: # query: growth | item `COC(=O)CSC1=C(C)C(=O)C(OC)=C(OC)C1=O` | system: DU-145 prostate
Reply: 103% (inactive)

====

- System: NCI-H226 lung
- testMethodNotes: NCI-60 one-dose screen, 48 h (100 = growth as untreated, 0 = no growth, -100 = all killed)
- testSettings: 10 µM unless noted
- Method: Growth inhibition of the NCI-H226 human Non-Small Cell Lung tumor cell line is measured as a screen for anti-cancer activity. Cells are grown in 96 well plates and exposed to the test compound for 48 hours. Compounds are tested at a single concentration, which is 10^-5 M for most compounds. The reported endpoint is percent growth (GI% or GIPRCNT), where numbers from 0 - 100% represent growth inhibition, and numbers from -100% - 0 represent cell death. […]
Compounds without any hit were thinned out: in the full panel of roughly 83,000, 20% have a hit.
This listing pairs molecules with measured growth.
Response body: numeric value in %, unit text excluded.

Recorded results for 3 molecules are shown here.
{"columns": ["molecule", "growth, %"],
 "data": [
  ["COc1ccc2[nH]cc(-c3cc4nc(-c5cn(C)c6ncccc56)cc(N)n4n3)c2c1", 92.6],
  ["O=C(CSc1nc2ccccc2c(=O)[nH]1)Nc1ccccc1C(=O)O", 102],
  ["CC(C)C[C@H](NC(=O)[C@@H]1CCCCCCCCCCC(=O)N[C@@H](CC(=O)N2CCC[C@@H]2C2CCCC2)C(=O)N1)B(O)O", -33.3]
]}

Ask: Please look up its growth: `O=C1Nc2cc(-c3ccc(NS(=O)(=O)c4ccc(-c5ccccc5)cc4)cc3)ccc2/C1=C/c1ccc[nH]1`
Reply: 66.5
